Molecular target: human mu opioid receptor (Homo sapiens, UniProt P35372)
Construct: host or cells: CHO-K1
Sequence (P35372 whole entry): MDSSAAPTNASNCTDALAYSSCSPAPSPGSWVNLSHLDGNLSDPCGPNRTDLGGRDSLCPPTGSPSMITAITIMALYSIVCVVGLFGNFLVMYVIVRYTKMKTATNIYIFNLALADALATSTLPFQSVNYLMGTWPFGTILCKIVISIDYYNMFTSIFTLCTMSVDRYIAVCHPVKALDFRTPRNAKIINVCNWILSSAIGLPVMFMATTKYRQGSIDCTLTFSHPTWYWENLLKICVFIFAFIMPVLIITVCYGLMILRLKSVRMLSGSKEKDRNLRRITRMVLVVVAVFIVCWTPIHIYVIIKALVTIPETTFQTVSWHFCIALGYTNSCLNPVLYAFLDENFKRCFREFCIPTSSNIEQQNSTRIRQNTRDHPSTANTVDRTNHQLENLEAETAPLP
Assay: Radioligand binding assay, human mu opioid receptor ([3H]-Diprenorphine displacement)
Settings: [3H]-Diprenorphine 0.5 nM, CHO-K1 membranes; read-out: pKi at the human mu opioid receptor (converted)
parameter_measured: Ki (nM)

1) NC(=O)c1cccc([C@H]2C[C@H]3CC[C@@H](C2)N3Cc2cncn2Cc2ccccc2)c1 : 0.631
2) CC(C)Cc1nc(CCCN2[C@@H]3CC[C@H]2C[C@@H](c2cccc(C(N)=O)c2)C3)no1 : 1.58
3) NC(=O)c1cccc([C@H]2C[C@H]3CC[C@@H](C2)N3CCCn2cc(-c3ccc(F)cc3F)nn2)c1 : 0.0501
4) CCCc1cn(CCN2[C@@H]3CC[C@H]2C[C@@H](c2cccc(C(N)=O)c2)C3)nn1 : 0.0794
